B1: KCNK9 (parent)
chain: CFITLTTIGFGDYVALQTKGALQK

- Variants of: B1
- ASSAY COMMENT: protein stability index of a GFP-peptide fusion (GPS, HEK-293T) (PSI 1-6); higher = more stable;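 further: lentivirally expressed fusions sorted by FACS into six bins by GFP to DsRed ratio, PSI derived from sequencing read proportions per bin multiplied by bin number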
- MEASUREMENT PARAMETERS: c terminus: a fixed tail appended
MEASURED QUANTITY: protein stability index
Reply with the value as a number alone.

So, CFITLTDIGFGDYVALQTKGALQK ? Its protein stability index was 2.15

So, CFITLTTGGFGDYVALQTKGALQK ? Its protein stability index was 2.78

So, CFITLTTIGFGDYVALCTKGALQK ? Its protein stability index was 3.88

So, CFITLTTIGFGDYVALQTKGDLQK ? Its protein stability index was 2.88

So, CFITLTTIGFGDYVALQLKGALQK ? Its protein stability index was 3.51

So, CFITLTTIGFGDYVALQTKGPLQK ? Its protein stability index was 2.97

So, CFITLTTIGFGDYFALQTKGALQK ? Its protein stability index was 3.46

So, CFITLTTIGFGDYVMLQTKGALQK ? Its protein stability index was 3.04
